Target: T1, Human C5a receptor 2 (human, UniProt Q9P296 1-337)
T1 construct: whole, on cells; also used here for native C5a2 on human monocyte derived macrophages and for the human C5a2 of the DiscoveRx PathHunter kit; also called C5a2; C5L2
T1 sequence (Q9P296 whole entry): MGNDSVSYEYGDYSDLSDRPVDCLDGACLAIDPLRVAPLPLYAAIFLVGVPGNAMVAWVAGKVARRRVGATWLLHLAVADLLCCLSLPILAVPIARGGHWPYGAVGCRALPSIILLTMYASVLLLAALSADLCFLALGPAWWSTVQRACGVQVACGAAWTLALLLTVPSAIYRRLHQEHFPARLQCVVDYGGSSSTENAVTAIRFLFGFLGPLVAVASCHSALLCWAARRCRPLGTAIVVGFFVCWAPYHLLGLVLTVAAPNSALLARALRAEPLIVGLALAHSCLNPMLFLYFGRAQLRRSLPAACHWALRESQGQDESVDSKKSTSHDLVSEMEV
Assay: 125I-C5a displacement, SPA on Flp-In CHO-C5a2 membranes
Method: To further address this issue, C5a2 SPA was used to test for the binding of C3a or C3a-des arg to C5a2. C5a2 receptor binding studies were performed using a modification of a previously described scintillation proximity assay (SPA) method⁴⁸. Briefly, C5a2 SPA studies were performed in 96-well white isoplates with clear flat bottoms (Perkin Elmer, Waltham, Mass., USA). […] Radioligand binding was then assessed for 30 s/well using a 1450 Microbeta scintillation counter (Perkin Elmer).

BINDER: Human isolated C5a-des Arg (ligand, UniProt P01031 678-750, looked up) TLQKKIEEIAAKYKHSVVKKCCYDGACVNNDETCEQRAARISLGPRCIKAFTECCVVASQLRANISHKDMQLG
Ki (nM): 1.5
